testedTarget: Metallo-beta-lactamase (Pseudomonas stutzeri) (UniProt D5JGF6)
Sequence (whole entry): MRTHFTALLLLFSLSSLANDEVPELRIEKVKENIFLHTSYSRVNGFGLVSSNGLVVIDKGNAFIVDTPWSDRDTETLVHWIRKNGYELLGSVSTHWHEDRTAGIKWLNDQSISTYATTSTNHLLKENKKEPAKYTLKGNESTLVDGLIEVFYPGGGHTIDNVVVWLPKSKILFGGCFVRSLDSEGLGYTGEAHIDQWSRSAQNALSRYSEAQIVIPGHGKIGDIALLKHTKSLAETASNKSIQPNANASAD
testSummary: Ratio of Kcat to Km for Pseudomonas stutzeri beta-lactamase DIM-1by UV-spectrophotometry
Set-up: unit not given here
runConditions: Stutzerimonas stutzeri

{"chemicalSmiles": "CC(=O)OCC1=C(C(=O)O)N2C(=O)[C@@H](NC(=O)Cc3cccs3)[C@H]2SC1", "Ratio": 5000}
{"chemicalSmiles": "CO[C@@]1(NC(=O)Cc2cccs2)C(=O)N2C(C(=O)O)=C(COC(N)=O)CS[C@@H]21", "Ratio": 400}
{"chemicalSmiles": "CO/N=C(\\C(=O)N[C@@H]1C(=O)N2C(C(=O)O)=C(COC(C)=O)CS[C@H]12)c1csc(N)n1", "Ratio": 3000}
{"chemicalSmiles": "CC1(C)S[C@@H]2[C@H](NC(=O)Cc3ccccc3)C(=O)N2[C@H]1C(=O)O", "Ratio": 2800}
